Protocol summary: Bioavailability in squirrel monkey
Type: ADME, organism-based, Saimiri sciureus
Experimental setup: in vivo
Recorded metric: bioavailability (%)
Kindly answer with a numeric value in %, unit omitted.

What value of bioavailability has been recorded for this entry: CS(=O)(=O)Nc1cc2c(cc1Sc1ccc(F)cc1F)C(=O)CC2
145

Cool, now CS(=O)(=O)Nc1cc2c(cc1Oc1ccc(F)cc1F)C(=O)CC2 [FLOSULIDE]
63

* * *

Protocol summary: Plasma terminal half life in squirrel monkeys at a dose of 1 mg/kg administered intravenously
Type: ADME, organism-based
Set-up: dose 1 mg/kg, route intravenous
Experimental setup: saimiri, iv
Would you mind telling me the reported half-life of each entry?
Kindly answer with a numeric value in h, unit omitted.

What value of half-life has been recorded for this entry: CS(=O)(=O)Nc1cc2c(cc1Sc1ccc(F)cc1F)C(=O)CC2
6.9

Cool, now CS(=O)(=O)Nc1cc2c(cc1Oc1ccc(F)cc1F)C(=O)CC2 [FLOSULIDE]
4.9

* * *

System under test: Prostaglandin G/H synthase 2 (Homo sapiens, UniProt P35354)
Sequence (P35354 whole entry): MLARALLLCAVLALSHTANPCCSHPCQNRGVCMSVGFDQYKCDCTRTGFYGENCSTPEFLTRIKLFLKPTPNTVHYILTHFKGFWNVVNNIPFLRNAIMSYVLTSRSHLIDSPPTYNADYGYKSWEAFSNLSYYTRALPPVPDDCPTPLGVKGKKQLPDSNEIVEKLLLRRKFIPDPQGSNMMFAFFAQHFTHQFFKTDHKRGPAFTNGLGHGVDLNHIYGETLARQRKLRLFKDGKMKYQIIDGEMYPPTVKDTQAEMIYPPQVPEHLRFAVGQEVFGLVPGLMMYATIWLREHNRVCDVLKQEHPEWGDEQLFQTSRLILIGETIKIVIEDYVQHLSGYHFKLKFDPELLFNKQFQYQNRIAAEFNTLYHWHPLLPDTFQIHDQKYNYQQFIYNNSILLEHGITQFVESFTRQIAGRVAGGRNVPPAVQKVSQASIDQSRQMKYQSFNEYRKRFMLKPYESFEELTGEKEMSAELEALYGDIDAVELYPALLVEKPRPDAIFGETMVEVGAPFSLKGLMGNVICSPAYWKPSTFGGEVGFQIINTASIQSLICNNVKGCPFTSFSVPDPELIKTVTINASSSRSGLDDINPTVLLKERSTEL
Protocol summary: In vitro inhibition of prostaglandin G/H synthase 2 expressed in human osteosarcoma 143 cells
Would you mind telling me the reported IC50 of each entry?
Kindly answer with a numeric value in µM, unit omitted.

What value of IC50 has been recorded for this entry: CS(=O)(=O)Nc1cc2c(cc1Sc1c(F)cccc1F)C(=O)CC2
0.1

Cool, now CS(=O)(=O)Nc1cc2c(cc1Sc1ccccn1)C(=O)CC2
0.1

Cool, now CS(=O)(=O)Nc1cc2c(cc1Sc1ccncc1)C(=O)CC2
1

Cool, now CS(=O)(=O)Nc1cc2c(cc1Sc1ccc(Cl)cc1Cl)C(=O)CC2
0.01

Cool, now CS(=O)(=O)Nc1cc2c(cc1OC1CCCCC1)C(=O)CC2
0.05

Cool, now CS(=O)(=O)Nc1cc2c(cc1Sc1ccc(F)cc1)C(=O)CC2
1

Cool, now CS(=O)(=O)Nc1cc2c(cc1Sc1ccc(Br)cc1)C(=O)CC2
0.01

Cool, now CS(=O)(=O)Nc1cc2c(cc1SC1CCCCC1)C(=O)CC2
0.05

Cool, now COc1ccc(Sc2cc3c(cc2NS(C)(=O)=O)CCC3=O)cc1
0.1

Cool, now CS(=O)(=O)Nc1cc2c(cc1Sc1ccccc1F)C(=O)CC2
0.1

Cool, now CS(=O)(=O)Nc1cc2c(cc1Sc1nccs1)C(=O)CC2
0.1

Cool, now O=C1CCc2cc(NS(=O)(=O)C(F)(F)F)c(Sc3ccc(F)cc3F)cc21
0.04

Cool, now CCc1ccc(Sc2cc3c(cc2NS(C)(=O)=O)CCC3=O)cc1
0.1

Cool, now CSc1ccc(Oc2cc3c(cc2NS(C)(=O)=O)CCC3=O)cc1
0.1

Cool, now CS(=O)(=O)Nc1cc2c(cc1Sc1cccs1)C(=O)CC2
1

Cool, now CS(=O)(=O)Nc1cc2c(cc1Nc1ccc(F)cc1F)C(=O)CC2
1

* * *

Protocol summary: Plasma Clearance rate was determined for the compound in squirrel monkeys
Assay type: ADME, organism-based
Experimental setup: saimiri
Recorded metric: clearance (mL/min)
Kindly answer with a numeric value in mL/min, unit omitted.

What value of clearance has been recorded for this entry: CS(=O)(=O)Nc1cc2c(cc1Oc1ccc(F)cc1F)C(=O)CC2 [FLOSULIDE]
1.2
